- experiment description: viability loss in pontine glioma line – cell-based, SU-DIPG-XXV, MIPE5.0, CellTiter-Glo, qHTS, dose response (AID 1347065);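 note: cells exposed to compound for 48 hours before ATP readout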
- measurement conditions: CellTiter-Glo ATP luminescence
Records with an inconclusive call do not appear. Activity calls are given as the source filed them. No cut-off is given here; in the data, nearly all actives have AC50 up to about 26 µM.
property name: AC50

Worked examples follow.
molecule: Cn1cc(-c2[nH]c3cc(NC(=O)[C@H](N)C4CCCCC4)cc4c3c2C=NNC4=O)cn1
AC50: 1180 nM (active)

molecule: Cc1c(Cn2c(C)nc3c(C(=O)O)cc(N4CCOCC4)cc32)cccc1C(F)(F)F
AC50: inactive

molecule: COc1cc(OC)c(/C=C/S(=O)(=O)Cc2ccc(OC)c(NCC(=O)O)c2)c(OC)c1
AC50: 118 nM (active)

molecule: COc1ccc(-c2ccc3ncc4c(c3c2)n(-c2ccc(N3CCNCC3)c(C(F)(F)F)c2)c(=O)n4C)cn1
AC50: 52.5 nM (active)

molecule: CC(=O)Oc1cc2c(s1)CCN(C(C(=O)C1CC1)c1ccccc1F)C2 (centres undefined)
AC50: inactive

molecule: C=CC(=O)Nc1cccc(Sc2nc(Nc3ccc(N4CCN(C)CC4)cc3)ncc2Cl)c1
AC50: 1480 nM (active)

**Q:** Which AC50 is reported for this molecule? c1ccc2c(CCNc3ccc(Nc4ccncc4)cc3)c[nH]c2c1
**A:** 26300 nM (active)

**Q:** Cool, now C[C@]12CCCN1CC1=NNC(=O)c3cc(F)cc4[nH]c2c1c34
**A:** 18600 nM (active)

###

- experiment description: MELAS cybrid and Rieske KO viability enhancers – cell-based, MELAS cybrids, Rieske KO mouse fibroblasts, CellTiter-Glo, primary screen (AID 1508586);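 note: z relative to plate mean and SD of compound and empty wells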
- measurement conditions: Rieske KO mouse fibroblast survival, low glucose, CellTiter-Glo 72 h
property name: z-score
The reply should be a number, written without any unit.

The following compounds have reported results that may help.
compound: CC(C)(C)c1cc(NC(=O)Nc2ccc(-c3cn4c(n3)sc3cc(OCCN5CCOCC5)ccc34)cc2)no1
z-score: -2.86
--
compound: Cc1cn(-c2cc(NC(=O)c3ccc(C)c(Nc4nccc(-c5cccnc5)n4)c3)cc(C(F)(F)F)c2)cn1
z-score: -0.657
--
compound: O=C(COc1cccc2c(=O)[nH]ccc12)c1ccccc1
z-score: 0.438
--
compound: COc1ccc(-c2c(-c3ccc(O)cc3O)n[nH]c2C)cc1
z-score: -0.216
--
compound: O=C(O)C(O)Cc1ccc(O)c(O)c1 (stereo unspecified)
z-score: 0.0393

**Q:** Using the record for Cc1cccc(-c2[nH]ncc2-c2ccc3ncccc3n2)n1 , report its z-score.
**A:** 0.111

###

- experiment description: viability loss in pontine glioma line – cell-based, SU-DIPG-IV, MIPE4.0, CellTiter-Glo, qHTS, dose response (AID 1347063);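 note: compound exposure lasted 48 hours before the viability readout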
- measurement conditions: CellTiter-Glo ATP luminescence
Inconclusive results are not listed. Active and inactive are the calls of the source. The limit is not given here; nearly all actives have AC50 up to about 30 µM.
The reply should name one outcome from active, inactive

Solved entries (count: 4):
compound: CC(=O)N1CCN(c2ccc(OCc3nn(C)c(C)c3-c3cccc4c(CCCOc5cccc6ccccc56)c(C(=O)O)n(Cc5cccnc5)c34)cc2)CC1
assigned label: active
//
compound: NC(=O)c1ccc(N(C(N)=O)c2c(F)cccc2F)nc1-c1ccc(F)cc1F
assigned label: inactive
//
compound: COc1cc(OC)cc(-c2ccc3ncc4ccc(=O)n(-c5ccc(N6CCNCC6)c(C(F)(F)F)c5)c4c3c2)c1
assigned label: active
//
compound: O=C(NC1CC1)c1cccc(-c2ccc3c(NC(=O)C4CC4)n[nH]c3c2)c1
assigned label: active

We next turn to a different compound, shown below.
**Q:** Name the outcome recorded for C[C@@]12O[C@@H](C[C@]1(O)CO)n1c3ccccc3c3c4c(c5c6ccccc6n2c5c31)CNC4=O in the assay.
**A:** active
